Experiment: recombinant UMI read abundance after kanamycin selection (control-corrected) (log10(CPM+1)); higher = more efficient recombination; extreme values may be limits of the assay; sequences stand for … in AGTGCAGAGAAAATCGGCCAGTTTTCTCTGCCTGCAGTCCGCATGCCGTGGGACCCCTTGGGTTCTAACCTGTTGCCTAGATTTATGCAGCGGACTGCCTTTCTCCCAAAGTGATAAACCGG…AGGTTGGTTTCACT; site = the 11-nt donor;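 note: IS621 bridge recombinase in Escherichia coli cells against a fixed T5 target plasmid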
For each entry below, report its recombinant UMI read abundance (log10) value.
Give the value as a plain number.

Value of recombinant UMI read abundance (log10) reported for the sequence CGGGAATCATGGACCGGTTTTCCCGGTAATCCGTATTTGCC (site CGGGAATCTGG) is 2.51

Value of recombinant UMI read abundance (log10) reported for the sequence GGATCATCATGGACCGGTTTTCCCGGTAATCCGTATTTGCT (site GGATCATCTAG) is 1.59

Value of recombinant UMI read abundance (log10) reported for the sequence TGTCCCCCATGGACCGGTTTTCCCGGTAATCCGTATTTGTA (site TGTGCCCCTTA) is 0.0174

Value of recombinant UMI read abundance (log10) reported for the sequence TTTGCGGCATGGACCGGTTTTCCCGGTAATCCGTATTTGCT (site TTTGCGACTAG) is 0

Value of recombinant UMI read abundance (log10) reported for the sequence AGCTCAGCATGGACCGGTTTTCCCGGTAATCCGTATTTGGT (site AGCTCAGCTTC) is 0.0112

Value of recombinant UMI read abundance (log10) reported for the sequence ATGAGGACATGGACCGGTTTTCCCGGTAATCCGTATTTGCT (site ATGAGGACTAG) is 2.89

Value of recombinant UMI read abundance (log10) reported for the sequence CCTAATACATGGACCGGTTTTCCCGGTAATCCGTATTTGGC (site CCTAGTACTGC) is 0

Value of recombinant UMI read abundance (log10) reported for the sequence CTGGAATCATGGACCGGTTTTCCCGGTAATCCGTATTTGCA (site CTGGAATCTTG) is 2.19

Value of recombinant UMI read abundance (log10) reported for the sequence GGGGCGCCATGGACCGGTTTTCCCGGTAATCCGTATTTGCA (site GGGGCCCCTTG) is 0

Value of recombinant UMI read abundance (log10) reported for the sequence GTAGAGGCATGGACCGGTTTTCCCGGTAATCCGTATTTGTG (site GTCGAGGCTCA) is 0.361

Value of recombinant UMI read abundance (log10) reported for the sequence TACACCGCATGGACCGGTTTTCCCGGTAATCCGTATTTGCG (site TGCACCGCTCG) is 0.0236

Value of recombinant UMI read abundance (log10) reported for the sequence TACTGAGCATGGACCGGTTTTCCCGGTAATCCGTATTTGGG (site TAGTGAGCTCC) is 0.0147

Value of recombinant UMI read abundance (log10) reported for the sequence ATTCCATCATGGACCGGTTTTCCCGGTAATCCGTATTTGAC (site ATTCCATCTGT) is 0.764

Value of recombinant UMI read abundance (log10) reported for the sequence TAACAACCATGGACCGGTTTTCCCGGTAATCCGTATTTGTT (site TAACAACCTAA) is 0.06

Value of recombinant UMI read abundance (log10) reported for the sequence TACAGTCCATGGACCGGTTTTCCCGGTAATCCGTATTTGTA (site TAGAGTCCTTA) is 0.198

Value of recombinant UMI read abundance (log10) reported for the sequence CGGGGAACATGGACCGGTTTTCCCGGTAATCCGTATTTGTT (site CGCGGAACTAA) is 0.00411

Value of recombinant UMI read abundance (log10) reported for the sequence TCAGAGACATGGACCGGTTTTCCCGGTAATCCGTATTTGCG (site TCAGAGACTCT) is 0.0281

Value of recombinant UMI read abundance (log10) reported for the sequence AGATCTACATGGACCGGTTTTCCCGGTAATCCGTATTTGTG (site AAATCTACTCA) is 0.223
